assay: Cycloheximide Counterscreen for Small Molecule Inhibitors of Shiga Toxin; conditions: cell reporter, cycloheximide protein synthesis inhibition counterscreen; stronger effect = higher value; further: read at 38.3 µM for the half of the compounds with a filed dose; 0% is about no effect
Among all 300,000 compounds or so, about 37,000 (12%) were called active. This excerpt belongs to a sample that is enriched for actives.
assayReadout: max response (%)
Answer in %, number only, no unit symbol.

Example compounds with recorded max response:
compound: COc1ccc(C(=O)/C=C/Nc2ccccn2)cc1
numericReadout: 2.25

compound: CCOc1ccc(C(CC(=O)O)NC(=O)Cc2ccccc2)cc1OC (stereo unspecified)
numericReadout: -1.44

compound: Cc1cc(N/C=C\C(=O)c2ccc(Cl)c(Cl)c2)no1
numericReadout: 11.9

Measured max response of Cc1cc(NC(=O)CSc2nnc(-c3ccc(Cl)s3)o2)no1 : 5.82

Measured max response of Cc1ccc(C(=O)N/C(=C\c2ccc(F)cc2)C(=O)NCCN2CCOCC2)cc1 : -2.99

Measured max response of Cc1cc(/C=C2\SC(=O)N(C)C2=O)c(C)n1-c1cccc(C(=O)O)c1 : 10.2
